Measured pIC50, listed per entry.
target_of_assay: Prostate-specific antigen (Homo sapiens) (UniProt P07288)
Sequence (P07288 whole entry, looked up): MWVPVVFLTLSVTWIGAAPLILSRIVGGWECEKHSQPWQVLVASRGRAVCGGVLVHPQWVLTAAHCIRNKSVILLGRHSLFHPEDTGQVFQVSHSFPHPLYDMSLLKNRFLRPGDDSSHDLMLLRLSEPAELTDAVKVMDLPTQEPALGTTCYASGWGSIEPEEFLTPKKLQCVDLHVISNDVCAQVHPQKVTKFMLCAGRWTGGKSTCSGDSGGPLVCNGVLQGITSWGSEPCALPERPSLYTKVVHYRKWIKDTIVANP
pIC50: −log10 of the molar value.
observed_property: pIC50

[[record]]
smiles_notation = "O=C(OC[C@@H]1[C@H](Cc2ccccc2)C(=O)N1C(=O)c1ccccc1)c1ccccc1"
target_of_assay = "Prostate-specific antigen (Homo sapiens) (UniProt P07288)"
operator = "="
endpoint_result = 5.80

[[record]]
smiles_notation = "O=C(OCc1ccccc1)[C@@H]1[C@H](Cc2ccc(O)cc2)C(=O)N1C(=O)c1ccccc1"
target_of_assay = "Prostate-specific antigen (Homo sapiens) (UniProt P07288)"
operator = "="
endpoint_result = 5.04

[[record]]
smiles_notation = "Cc1ccc(S(=O)(=O)N2C(=O)[C@@H](Cc3ccccc3)[C@H]2COC(=O)c2ccccc2)cc1"
target_of_assay = "Prostate-specific antigen (Homo sapiens) (UniProt P07288)"
operator = "="
endpoint_result = 5.32

[[record]]
smiles_notation = "O=C(OCc1ccccc1)c1cccc(CC(=O)N2C(=O)[C@@H](Cc3ccccc3)[C@H]2COC(=O)c2ccccc2)c1"
target_of_assay = "Prostate-specific antigen (Homo sapiens) (UniProt P07288)"
operator = "<"
endpoint_result = 4.00

[[record]]
smiles_notation = "O=C(O)c1ccc(COC(=O)[C@@H]2[C@H](Cc3ccccc3)C(=O)N2C(=O)c2ccccc2)cc1"
target_of_assay = "Prostate-specific antigen (Homo sapiens) (UniProt P07288)"
operator = "="
endpoint_result = 4.61

[[record]]
smiles_notation = "Cc1ccc(S(=O)(=O)N2C(=O)[C@@H](Cc3ccccc3)[C@H]2C(=O)OCc2ccccc2)cc1"
target_of_assay = "Prostate-specific antigen (Homo sapiens) (UniProt P07288)"
operator = "<"
endpoint_result = 4.52

[[record]]
smiles_notation = "O=C(O)c1ccc(COC(=O)[C@@H]2[C@H](Cc3ccccc3)C(=O)N2C(=O)Cc2cccc(C(=O)O)c2)cc1"
target_of_assay = "Prostate-specific antigen (Homo sapiens) (UniProt P07288)"
operator = "<"
endpoint_result = 4.52


The reported numbers originate from BindingDB's records for doi:10.1021/jm000145g.
